- Tested on: UISO
- method-notes: qHTS assay to identify novel small-molecules to repurpose for Merkel cell carcinoma treatment (AID 1296009); note: nearly all actives have a fitted effect of over 60% in size
- condition-details: MCC and control cell lines, CellTiter-Glo viability, 72 h; series mostly up to 46 µM
Results filed as inconclusive are left out. The source made the active and inactive calls. Calls come from the whole dose curve; as a rule, active = well fitted inhibition curve with a large enough effect; inconclusive = small, poorly fitted or top-dose-only effect; inactive = flat fitted curve, though single readings scatter.
Please reply with one of these outcomes: active, inactive

For C=C1C(=CC=C2CCC[C@]3(C)[C@@H]([C@H](C)C=C[C@H](C)C(C)C)CC[C@@H]23)C[C@@H](O)C[C@@H]1O , which call appears in the assay record? active

# outcome recorded in this test, key = Cc1c(Cn2c(C)nc3c(C(=O)O)cc(N4CCOCC4)cc32)cccc1C(F)(F)F inactive

Please let me know the test result on file for C[C@@H](Oc1cc(-c2cnn(C3CCNCC3)c2)cnc1N)c1c(Cl)ccc(F)c1Cl . active

Call for entry CC(C)(C)c1cc(C(C)(C)C)c(NC(=O)c2c[nH]c3ccccc3c2=O)cc1O : inactive

Look up the recorded call for CCn1cc(-c2ccnc3[nH]c(-c4cccc(CN(C)C)c4)cc23)c(-c2ccc(NC(=O)N(C)C)cc2)n1 in this test. active

###

Record form. Attribute: Potency. Fill in for each entry.
- method-notes: Quantitative High-Throughput drug screen in 47 multiple myeloma cell lines against the NCATS MIPE library collection: KHM11_PLB cell viability assay (AID 1918962); note: potency is the fitted concentration of half-maximal effect; nearly all actives have a fitted effect of over 35% in size
- condition-details: KHM11 myeloma cell viability, CellTiter-Glo ATP luminescence, 48 h; series mostly up to 45.8 µM
Inconclusive results are not listed. The source made the active and inactive calls. Calls follow the shape of the dose curve; as a rule, active = well fitted cell-killing curve with a large enough effect; inconclusive = small, poorly fitted or top-dose-only effect, or effect the other way; inactive = no such curve, though single readings can be large or run the other way.

// lookup Potency for CCCCc1nc2cc(C=CC(=O)NO)ccc2n1CCN(CC)CC 1.48 µM (active)

# input compound: Nc1ccn([C@@H]2O[C@H](CO)[C@H](O)C2(F)F)c(=O)n1 ; wanted: its Potency 5.9 µM (active)

Item C[C@@H](Oc1cc(-c2cnn(C3CCNCC3)c2)cnc1N)c1c(Cl)ccc(F)c1Cl has what recorded Potency? 3.72 µM (active)

// lookup Potency for O=C(Nc1nc2cccc(-c3ccc(CN4CCS(=O)(=O)CC4)cc3)n2n1)C1CC1 13.2 µM (active)

Bench note: what Potency did O=C(CCCCCCNC(=O)c1cnc(N(c2ccccc2)c2ccccc2)nc1)NO show? 10.5 µM (active)

Name the reported Potency value associated with the compound COc1cc2c(Oc3ccc4[nH]c(C)cc4c3F)ncnc2cc1OCCCN1CCCC1 4.69 µM (active)

###

- method-notes: Quantitative High-Throughput drug screen in 47 multiple myeloma cell lines against the NCATS MIPE library collection: Delta47_JCRB cell viability assay (AID 1918925; note: nearly all actives have a fitted effect of over 45% in size)
- condition-details: Delta47 myeloma viability, CellTiter-Glo ATP, 48 h; series mostly up to 45.8 µM
Records with an inconclusive call do not appear. Active and inactive are the calls of the source. Calls follow the shape of the dose curve; as a rule, active = well fitted cell-killing curve with a large enough effect; inconclusive = small, poorly fitted or top-dose-only effect, or effect the other way; inactive = no such curve, though single readings can be large or run the other way.
The reply should be one of these categories: Y = active, N = inactive

Query: recorded result category for CN(C)c1nc(Cc2ccc(NC(=O)c3ccc4ccccc4c3)cc2)nc(Cl)c1CC(=O)O in this test N

What is the recorded call for this compound in the test? Cc1c(CN2CCN(S(C)(=O)=O)CC2)sc2c(N3CCOCC3)nc(-c3cnc(N)nc3)nc12 Y

Status in this test for Cc1ccc(C(N)=O)cc1Nc1nccc(-c2cn(C(C)C)c3cnccc23)n1 ? Y

Per the assay record, what outcome was assigned to CN1CCN(c2cc(C(=O)Nc3ccc4c(c3)-c3c(c(C(N)=O)nn3-c3ccc(F)cc3)CC4)c(Cl)cn2)CC1 ? Y

I'd appreciate the recorded outcome for CC(=O)OCC(=O)[C@@]1(O)[C@H](C)C[C@H]2[C@@H]3C=C(C)C4=Cc5c(cnn5-c5ccccc5)C[C@]4(C)[C@@H]3[C@@H](O)C[C@@]21C from this test. Y
